# Test target: serotonin 1A receptor (Rattus norvegicus)
# Construct: To the receptor fraction of the hippocampus were added a test compound and 0.5 nM of [^3H]; 8-hydroxy-dipropylaminotetralin; from tissue; host or cells: rat hippocampus membrane fraction
# Test method notes: Binding test on [3H] 8-hydroxy-dipropylaminotetralin, hippocampus receptor fraction
# Parameters: species or system SD rats
# Details: rat hippocampus receptor fraction, 0.5 nM [3H] 8-OH-DPAT, room temperature 30 min; read-out: 5HT1
Where a name gives a salt, the structure may show the parent alone.
Would you mind telling me the reported pKi of each entry?
Give bare numbers, as −log10 of the molar value.

Sample records with pKi:
> print(dat)
                                   compound  test.value
1  CCN1CCN(c2nc(-c3ccc(OCC(C)=O)cc3)cc3ccccc23)CC1 [Example 47]        7.60
2  CCN1CCN(c2nc(/C=C/Cc3ccccc3OC)cc3ccccc23)CC1 [Example 211]        8.29
3  CCN1CCN(c2nc(-c3ccc(CCCO)c(C#N)c3)cc3ccccc23)CC1 [Example 32, hydrochloride]        8.00
4  CCN1CCN(c2nc(-c3ccc(CCCO)c(F)c3)cc3ccccc23)CC1 [Example 29, hydrochloride]        8.02
5  CCN1CCN(c2nc(-c3ccccn3)cc3ccccc23)CC1 [Example 123, Dihydrochloride]        7.47

Data request, read-out pKi, for CCN1CCN(c2nc(C#Cc3ncccc3OCCO)cc3ccccc23)CC1 [Example 188]
8.35

----------
Form: system (serotonin 2 receptor (Rattus norvegicus, UniProt P14842)), quantity (pKi), values below.
Counter-ions that a name gives are not always drawn.
Answers are plain numbers, as −log10 of the molar value.

Sample records with pKi:
> print(dat)
                                   compound  observation.type  test.value
1  CCN1CCN(c2nc(C#CC(=O)c3ccccc3)cc3ccccc23)CC1 [Example 184, Oxalate]               pKi        6.91
2  CCN1CCN(c2nc(-c3ccc(CCCOC)cn3)cc3ccccc23)CC1 [Example 141, Oxalate]               pKi        7.69
3  CCN1CCN(c2nc(CCCc3ccccc3OCCO)cc3ccccc23)CC1               pKi        6.96
4  CCNC(=O)c1ccc(-c2cc3ccsc3c(N3CCN(CC)CC3)n2)cc1 [Example 448, dihydrochloride]               pKi        6.46

Data request, read-out pKi, for CCN1CCN(c2nc(-c3ccc(S(=O)(=O)NC4CC4)cc3)cc3ccccc23)CC1 [Example 363, dihydrochloride]
9.21

----------
# Test target: serotonin 1A receptor (Rattus norvegicus)
# Construct: To the receptor fraction of the hippocampus were added a test compound and 0.5 nM of [^3H]; 8-hydroxy-dipropylaminotetralin; from tissue; host or cells: rat hippocampus membrane fraction
# Sequence (P19327 1-422): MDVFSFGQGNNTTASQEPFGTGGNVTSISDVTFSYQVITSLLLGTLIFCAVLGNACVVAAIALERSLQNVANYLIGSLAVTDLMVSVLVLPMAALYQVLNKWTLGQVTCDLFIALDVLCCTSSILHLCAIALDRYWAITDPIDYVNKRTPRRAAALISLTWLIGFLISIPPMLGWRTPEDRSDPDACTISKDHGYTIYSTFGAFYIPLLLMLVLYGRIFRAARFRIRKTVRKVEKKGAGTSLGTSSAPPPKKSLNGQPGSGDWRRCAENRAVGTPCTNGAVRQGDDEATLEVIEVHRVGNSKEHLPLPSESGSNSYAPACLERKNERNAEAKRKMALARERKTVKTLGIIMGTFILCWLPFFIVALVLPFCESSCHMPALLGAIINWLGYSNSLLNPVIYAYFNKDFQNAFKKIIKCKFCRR
# Test method notes: Binding test on [3H] 8-hydroxy-dipropylaminotetralin, hippocampus receptor fraction
# Set-up: species or system SD rats
# Details: rat hippocampus receptor fraction, 0.5 nM [3H] 8-OH-DPAT, room temperature 30 min; read-out: 5HT1
Where a name gives a salt, the structure may show the parent alone.
Mark fulfilled only when Ki stays strictly below 9 nM. Values equal to the cut-off are not fulfilled.

Would you please look over these solved cases?
> print(dat)
                                   compound    label.value
1  CCN1CCN(c2nc(-c3ccc(C4CCOCC4)cc3)cc3ccccc23)CC1 [Example 83, Hydrochloride]  not fulfilled
2  CCN1CCN(c2nc(-c3ccc(CO)s3)cc3ccccc23)CC1 [Example 162, dihydrochloride]  not fulfilled
3  CCN1CCN(c2nc(/C=C/c3cccc(OCCO)c3)cc3ccsc23)CC1 [Example 430, hydrochloride]      fulfilled
4  CCN1CCN(c2nc(-c3ccc(C(CC(C)O)OC)cc3)cc3ccccc23)CC1 (stereo not drawn)      fulfilled
5  CCN1CCN(c2nc(-c3cnc(CCCOC)s3)cc3ccccc23)CC1 [Example 172, oxalate]      fulfilled
6  CCCCc1ccc(-c2cc3ccccc3c(N3CCN(CC)CC3)n2)cn1      fulfilled
7  CCN1CCN(c2nc(CCc3ccc(OC)cc3)cc3ccccc23)CC1  not fulfilled

Next, consider the following compound.
Take the compound CCN1CCN(c2nc(-c3cc(OC)ccn3)cc3ccccc23)CC1 [Example 335, dihydrochloride] and say whether its Ki is less than 9 nM.
not fulfilled
